Test system: NCI-H1876 complex spheroid growth, % test/control
Experiment notes: Anticancer human tumor NCI-H1876 cell line growth inhibition [Asc]
Setup conditions: second compound 0.3 µM; first compound 0.01 µM; stronger effect = lower value
Measured viability, T/C accompanies every entry in the list below.
Return type: number; implicit unit %.

Would you please look over these solved cases?
CCN1CCN(Cc2ccc(Nc3ncc(F)c(-c4cc(F)c5nc(C)n(C(C)C)c5c4)n3)nc2)CC1 + CCN1C(C(=O)NC23CCC(C(=O)O)(CC2)CC3)C(c2cccc(Cl)c2F)C2(C(=O)Nc3cc(Cl)ccc32)C12CCCCC2 | 105
O=C(c1ccc(F)c(F)c1Nc1ccc(I)cc1F)N1CC(O)([C@@H]2CCCCN2)C1 + CCN1C(C(=O)NC23CCC(C(=O)O)(CC2)CC3)C(c2cccc(Cl)c2F)C2(C(=O)Nc3cc(Cl)ccc32)C12CCCCC2 | 110
NC1CCC(NC2CC2c2ccccc2)CC1 (stereo unspecified) + CCN1C(C(=O)NC23CCC(C(=O)O)(CC2)CC3)C(c2cccc(Cl)c2F)C2(C(=O)Nc3cc(Cl)ccc32)C12CCCCC2 | 124
Cn1ncnc1[C@H]1c2n[nH]c(=O)c3cc(F)cc(c23)N[C@@H]1c1ccc(F)cc1 + CCN1C(C(=O)NC23CCC(C(=O)O)(CC2)CC3)C(c2cccc(Cl)c2F)C2(C(=O)Nc3cc(Cl)ccc32)C12CCCCC2 | 114
COc1c(OCCCN2CCOCC2)ccc2c3n(c(=NC(=O)c4cnc(N)nc4)nc12)CCN3 + CCN1C(C(=O)NC23CCC(C(=O)O)(CC2)CC3)C(c2cccc(Cl)c2F)C2(C(=O)Nc3cc(Cl)ccc32)C12CCCCC2 | 96

Consider the record given below.
**Q:** What measured viability, T/C is associated with CNC(C)C(=O)NC1CN(S(=O)(=O)c2cccc(S(=O)(=O)N3CCC4CCC(C(=O)NC(c5ccccc5)c5ccccc5)N4C(=O)C(NC(=O)C(C)NC)C3)c2)CCC2CCC(C(=O)NC(c3ccccc3)c3ccccc3)N2C1=O (stereo unspecified) + CCN1C(C(=O)NC23CCC(C(=O)O)(CC2)CC3)C(c2cccc(Cl)c2F)C2(C(=O)Nc3cc(Cl)ccc32)C12CCCCC2 on NCI-H1876 complex spheroid growth, % test/control?
**A:** 108

* * *

Tested on: NCI-H1876 complex spheroid growth, % test/control
Experiment notes: Anticancer human tumor NCI-H1876 cell line growth inhibition [Asc];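 also: compound exposure lasted 7 days starting three days after seeding; 100% = DMSO vehicle control wells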
Setup conditions: second compound 0.0316 µM; first compound 0.949 µM; stronger effect = lower value
Measurement label: viability, T/C (%)
Return type: number; implicit unit %.

**Q:** What measured viability, T/C is associated with Cc1nc(N2CCC3(CC2)COC(C)C3N)c(CO)nc1Sc1ccnc(N)c1Cl (centres undefined) + CNC(C)C(=O)NC1CN(S(=O)(=O)c2cccc(S(=O)(=O)N3CCC4CCC(C(=O)NC(c5ccccc5)c5ccccc5)N4C(=O)C(NC(=O)C(C)NC)C3)c2)CCC2CCC(C(=O)NC(c3ccccc3)c3ccccc3)N2C1=O on NCI-H1876 complex spheroid growth, % test/control?
**A:** 87.6

* * *

Measured viability, T/C accompanies every entry in the list below.
Tested on: NCI-H1876 complex spheroid growth, % test/control
Experiment notes: Anticancer human tumor NCI-H1876 cell line growth inhibition [Asc];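 also: compound exposure lasted 7 days starting three days after seeding; 100% = DMSO vehicle control wells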
Setup conditions: second compound 1 µM; first compound 0.0316 µM; stronger effect = lower value
Return type: number; implicit unit %.

C=C(F)C(=O)N1CCN(c2nc(OCC3CCCN3C)nc3c2CCN(c2cccc4cccc(Cl)c24)C3)CC1CC#N (stereo not drawn) + CNC(C)C(=O)NC1CN(S(=O)(=O)c2cccc(S(=O)(=O)N3CCC4CCC(C(=O)NC(c5ccccc5)c5ccccc5)N4C(=O)C(NC(=O)C(C)NC)C3)c2)CCC2CCC(C(=O)NC(c3ccccc3)c3ccccc3)N2C1=O | 96.2
O=C(c1cc(Cc2n[nH]c(=O)c3ccccc23)ccc1F)N1CCN(C(=O)C2CC2)CC1 + Cc1c(S(C)(=O)=O)c(-c2cc(F)cc(N3CCN(c4ccc(NS(=O)(=O)c5ccc(NC(CCN6CCC(C(=O)OCCCP(=O)(O)O)CC6)CSc6ccccc6)c(S(=O)(=O)C(F)(F)F)c5)cc4)CC3)c2)c(-c2ccc(Cl)cc2)n1C(C)C | 111

**Q:** Given O=C(c1cc(Cc2n[nH]c(=O)c3ccccc23)ccc1F)N1CCN(C(=O)C2CC2)CC1 + CNC(C)C(=O)NC1CN(S(=O)(=O)c2cccc(S(=O)(=O)N3CCC4CCC(C(=O)NC(c5ccccc5)c5ccccc5)N4C(=O)C(NC(=O)C(C)NC)C3)c2)CCC2CCC(C(=O)NC(c3ccccc3)c3ccccc3)N2C1=O , state its recorded viability, T/C.
**A:** 101

* * *

Measured viability, T/C accompanies every entry in the list below.
Test system: NCI-H1876 complex spheroid growth, % test/control
Experiment notes: Anticancer human tumor NCI-H1876 cell line growth inhibition [Asc];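 also: compound exposure lasted 7 days starting three days after seeding; 100% = DMSO vehicle control wells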
Setup conditions: second compound 1 µM; first compound 0.0316 µM; stronger effect = lower value
Return type: number; implicit unit %.

Would you please look over these solved cases?
CCN1CCN(Cc2ccc(Nc3ncc(F)c(-c4cc(F)c5nc(C)n(C(C)C)c5c4)n3)nc2)CC1 + CNC(C)C(=O)NC1CN(S(=O)(=O)c2cccc(S(=O)(=O)N3CCC4CCC(C(=O)NC(c5ccccc5)c5ccccc5)N4C(=O)C(NC(=O)C(C)NC)C3)c2)CCC2CCC(C(=O)NC(c3ccccc3)c3ccccc3)N2C1=O | 109
C#Cc1c(F)ccc2cc(O)cc(-c3ncc4c(N5CC6CCC(C5)N6)nc(OCC56CCCN5CC(F)C6)nc4c3F)c12 (stereo not given) + Cc1c(S(C)(=O)=O)c(-c2cc(F)cc(N3CCN(c4ccc(NS(=O)(=O)c5ccc(NC(CCN6CCC(C(=O)OCCCP(=O)(O)O)CC6)CSc6ccccc6)c(S(=O)(=O)C(F)(F)F)c5)cc4)CC3)c2)c(-c2ccc(Cl)cc2)n1C(C)C | 90
C=CC(=O)N1CCN(c2nc(=O)n(-c3c(C)ccnc3C(C)C)c3nc(-c4c(O)cccc4F)c(F)cc23)C(C)C1 (stereo not given) + Cc1c(S(C)(=O)=O)c(-c2cc(F)cc(N3CCN(c4ccc(NS(=O)(=O)c5ccc(NC(CCN6CCC(C(=O)OCCCP(=O)(O)O)CC6)CSc6ccccc6)c(S(=O)(=O)C(F)(F)F)c5)cc4)CC3)c2)c(-c2ccc(Cl)cc2)n1C(C)C | 105
COc1c(OCCCN2CCOCC2)ccc2c3n(c(=NC(=O)c4cnc(N)nc4)nc12)CCN3 + CNC(C)C(=O)NC1CN(S(=O)(=O)c2cccc(S(=O)(=O)N3CCC4CCC(C(=O)NC(c5ccccc5)c5ccccc5)N4C(=O)C(NC(=O)C(C)NC)C3)c2)CCC2CCC(C(=O)NC(c3ccccc3)c3ccccc3)N2C1=O | 96.6

**Q:** Given C#Cc1c(F)ccc2cc(O)cc(-c3ncc4c(N5CC6CCC(C5)N6)nc(OCC56CCCN5CC(F)C6)nc4c3F)c12 (stereo not given) + CNC(C)C(=O)NC1CN(S(=O)(=O)c2cccc(S(=O)(=O)N3CCC4CCC(C(=O)NC(c5ccccc5)c5ccccc5)N4C(=O)C(NC(=O)C(C)NC)C3)c2)CCC2CCC(C(=O)NC(c3ccccc3)c3ccccc3)N2C1=O , state its recorded viability, T/C.
**A:** 90.3

* * *

System: NCI-H1876 complex spheroid growth, % test/control
Experiment notes: Anticancer human tumor NCI-H1876 cell line growth inhibition [Asc];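 also: compound exposure lasted 7 days starting three days after seeding; 100% = DMSO vehicle control wells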
Setup conditions: second compound 1 µM; first compound 0.316 µM; stronger effect = lower value
Measurement label: viability, T/C (%)
Return type: number; implicit unit %.

O=C(c1cc(Cc2n[nH]c(=O)c3ccccc23)ccc1F)N1CCN(C(=O)C2CC2)CC1 + Cc1c(S(C)(=O)=O)c(-c2cc(F)cc(N3CCN(c4ccc(NS(=O)(=O)c5ccc(NC(CCN6CCC(C(=O)OCCCP(=O)(O)O)CC6)CSc6ccccc6)c(S(=O)(=O)C(F)(F)F)c5)cc4)CC3)c2)c(-c2ccc(Cl)cc2)n1C(C)C | 90.1
C#Cc1c(F)ccc2cc(O)cc(-c3ncc4c(N5CC6CCC(C5)N6)nc(OCC56CCCN5CC(F)C6)nc4c3F)c12 (stereo not drawn) + CNC(C)C(=O)NC1CN(S(=O)(=O)c2cccc(S(=O)(=O)N3CCC4CCC(C(=O)NC(c5ccccc5)c5ccccc5)N4C(=O)C(NC(=O)C(C)NC)C3)c2)CCC2CCC(C(=O)NC(c3ccccc3)c3ccccc3)N2C1=O | 98

Consider the record given below.
**Q:** Given C=CC(=O)N1CCN(c2nc(=O)n(-c3c(C)ccnc3C(C)C)c3nc(-c4c(O)cccc4F)c(F)cc23)C(C)C1 (stereo not drawn) + CNC(C)C(=O)NC1CN(S(=O)(=O)c2cccc(S(=O)(=O)N3CCC4CCC(C(=O)NC(c5ccccc5)c5ccccc5)N4C(=O)C(NC(=O)C(C)NC)C3)c2)CCC2CCC(C(=O)NC(c3ccccc3)c3ccccc3)N2C1=O , state its recorded viability, T/C.
**A:** 118
